Assay: Toxicity: perished animals/tested animals
Type: in vivo
Settings: 320 mg./kg
# Perished animals/tested animals annotations
READOUT: Perished animals/tested animals

{"MOLECULE": "CCC1(c2ccccc2)C(=O)NC(=O)NC1=O [Phenobarbital, reference compound]", "READOUT": "Perished animals/tested animals", "ASSAY_VALUE": "9/10"}
{"MOLECULE": "CCC(O)(c1ccccc1)c1cccc(C(F)(F)F)c1 (stereo not drawn) [E 15, 3-Trifluoromethyl-α-ethyl-benzhydrol]", "READOUT": "Perished animals/tested animals", "ASSAY_VALUE": "0/10"}
{"MOLECULE": "CCC(O)(c1ccccc1)c1cccc(Cl)c1 (stereo not drawn) [E 9, 3-chloro-α-ethyl-benzhydrol]", "READOUT": "Perished animals/tested animals", "ASSAY_VALUE": "0/10"}
{"MOLECULE": "CCC(O)(c1ccccc1)c1ccc(Cl)cc1Cl (stereo not drawn) [E 11, 2,4-dichloro-α-ethyl-benzhydrol]", "READOUT": "Perished animals/tested animals", "ASSAY_VALUE": "0/10"}

====

Catalogue of Perished animals/tested animals values
Experiment: Toxicity: perished animals/tested animals
Assay type: in vivo
Settings: 160 mg./kg
Description: Despite its disadvantageous properties, phenobarbital is widely used in the treatment of neonatal jaundice. In order to enable a better comparison, Table 8 indicates the respective dosages in which phenobarbital causes lethal respiration paralysis, while the compounds according to the invention are completely innocuous.
READOUT: Perished animals/tested animals

{"COMPOUND": "CCC(O)(c1ccccc1)c1cccc(C(F)(F)F)c1 (stereo not drawn) [E 15, 3-Trifluoromethyl-α-ethyl-benzhydrol]", "ASSAY_VALUE": "0/10"}
{"COMPOUND": "CCC(O)(c1ccccc1)c1ccc(Cl)cc1Cl (stereo not drawn) [E 11, 2,4-dichloro-α-ethyl-benzhydrol]", "ASSAY_VALUE": "0/10"}
{"COMPOUND": "CCC1(c2ccccc2)C(=O)NC(=O)NC1=O [Phenobarbital, reference compound]", "ASSAY_VALUE": "4/10"}
{"COMPOUND": "CCC(O)(c1ccccc1)c1cccc(Cl)c1 (stereo not drawn) [E 9, 3-chloro-α-ethyl-benzhydrol]", "ASSAY_VALUE": "0/10"}

====

Below, each entry is listed alongside its reported Sleeping period ± standard error.
Tested on: hexobarbital oxidase
Test: Enzyme-inducing potency: in vivo hexobarbital oxidase activity (duration of hexobarbital narcosis)
Parameters: species or system Female Wistar rats
Conditions: 5 mg./kg. single dosage, 24 hours before hexobarbital

{"COMPOUND": "CCC(O)(c1ccccc1)c1cccc(C(F)(F)F)c1 (stereo not drawn) [E 15, 3-Trifluoromethyl-α-ethyl-benzhydrol]", "TESTED_TARGET": "hexobarbital oxidase", "Sleeping period ± standard error": 18.0}
{"COMPOUND": "CCC1(c2ccccc2)C(=O)NC(=O)NC1=O [Phenobarbital, reference compound]", "TESTED_TARGET": "hexobarbital oxidase", "Sleeping period ± standard error": 20.1}
{"COMPOUND": "CCC(O)(c1ccccc1)c1cccc(Cl)c1 (stereo not drawn) [E 9, 3-chloro-α-ethyl-benzhydrol]", "TESTED_TARGET": "hexobarbital oxidase", "Sleeping period ± standard error": 21.7}
{"COMPOUND": "CCC(O)(c1ccccc1)c1ccc(Cl)cc1Cl (stereo not drawn) [E 11, 2,4-dichloro-α-ethyl-benzhydrol]", "TESTED_TARGET": "hexobarbital oxidase", "Sleeping period ± standard error": 22.0}
{"COMPOUND": "CCC(O)(c1ccccc1)c1cc(C)ccc1C (stereo not drawn) [E 20, 2,5-dimethyl-α-ethyl-benzhydrol]", "TESTED_TARGET": "hexobarbital oxidase", "Sleeping period ± standard error": 23.8}
